# Tested on: Plasmodium berghei
# assay_protocol: Screen against P. berghei liver stage (PbLuc), transformed with Luciferase, at 10uM
# Type: functional, HepG2
# condition_notes: tested at 10 uM
In all, about 69,000 compounds went through this assay and about 8,600 (12%) showed an effect of 50% or more. This excerpt belongs to a sample that is enriched for strong results.
Returns the class for an entry based on its INHIBITION. Class ranges: bucket 1 (below 10%), bucket 2 (10% to below 40%), bucket 3 (40% or more)

Would you mind sorting `N#Cc1ccc(C(=O)NCCCNc2ccc(C(F)(F)F)cn2)cc1` into the appropriate category?
bucket 3

Would you mind sorting `Cc1ncsc1C(=O)NCCSCc1cccs1` into the appropriate category?
bucket 3

Would you mind sorting Cc1cc(CCC(=O)N(C)C)nc(C2CCCCN2)n1 (stereo not given) into the appropriate category?
bucket 2

Would you mind sorting `O=C(NCCCNc1ccc(C(F)(F)F)cn1)c1ccc(F)cc1` into the appropriate category?
bucket 3

Would you mind sorting CC(NC(=O)NC1CCN(Cc2ccccn2)CC1)c1ccco1 (stereo not given) into the appropriate category?
bucket 2

Would you mind sorting CCCS(=O)(=O)N1CCCC(CCC(=O)N(C)CCc2ccccn2)C1 (stereo not given) into the appropriate category?
bucket 2

Would you mind sorting `O=c1[nH]c2cn(-c3ccc(Br)cc3)c(=O)n2[nH]1` into the appropriate category?
bucket 2

Would you mind sorting `CCc1nc(C)c(C(=O)NCCNc2cnccn2)s1` into the appropriate category?
bucket 1

Would you mind sorting CC(NC(=O)NC1CCN(Cc2ccncc2)CC1)c1ccccc1F (stereo not given) into the appropriate category?
bucket 3

Would you mind sorting CC(NC(=O)NC1CCN(Cc2ccccc2)CC1)c1nncn1C (stereo not given) into the appropriate category?
bucket 1

Would you mind sorting `Cc1cc(NCCNc2ccc(C#N)cn2)nc(C)n1` into the appropriate category?
bucket 1

Would you mind sorting `Cc1ncsc1C(=O)NCCNc1cnccn1` into the appropriate category?
bucket 3

Would you mind sorting CC(NC(=O)NC1CCN(Cc2ccncc2)CC1)c1cccc(F)c1 (stereo not given) into the appropriate category?
bucket 2

Would you mind sorting `Cc1ncsc1C(=O)NCCc1cccs1` into the appropriate category?
bucket 1

Would you mind sorting `O=C(NCCNc1ncccn1)c1scnc1Cl` into the appropriate category?
bucket 2

Would you mind sorting NC(=O)C(NC1CCN(Cc2ccc(F)cc2)CC1)c1ccccc1 (stereo not given) into the appropriate category?
bucket 1

Would you mind sorting `COc1ccc(C(=O)NCCCNc2ccc(C(F)(F)F)cn2)cc1` into the appropriate category?
bucket 2

Would you mind sorting O=C1CCCN1C1CCCN(CCn2cc(Cl)cn2)C1 (stereo not given) into the appropriate category?
bucket 1

Would you mind sorting `CCn1ccnc1CN(C)c1cc(N(C)C)ncn1` into the appropriate category?
bucket 3

Would you mind sorting `O=C(NCCCNc1ccc(C(F)(F)F)cn1)c1ccccc1` into the appropriate category?
bucket 2

Would you mind sorting `O=C(NCCCNc1ccc(C(F)(F)F)cn1)c1ccc(F)cc1Br` into the appropriate category?
bucket 3

Would you mind sorting O=C(c1cc2c(s1)CCC2)N1CCCC(c2cnccn2)C1 (stereo not given) into the appropriate category?
bucket 1

Would you mind sorting `O=C(NCCCNc1ccc(C(F)(F)F)cn1)c1ccc(F)cc1F` into the appropriate category?
bucket 1

Would you mind sorting CC(NC(=O)NC1CCN(Cc2ccncc2)CC1)c1ccc(F)cc1 (stereo not given) into the appropriate category?
bucket 3

###

# Tested on: Plasmodium berghei
# assay_protocol: Screen against P. berghei liver stage (PbLuc), transformed with Luciferase, at 10uM
# Type: functional, HepG2
# condition_notes: tested at 10 uM
The campaign covered roughly 69,000 compounds. About 8,600 (12%) showed an effect of 50% or more. Many of the other results were omitted from the sample, so strong results are more common in it than they were.
# cutoff 30% applies to INHIBITION; >= gives T, < gives F

Decide: INHIBITION of `c1ccc(CO[C@@H]2CN(Cc3nccs3)[C@@H]3COC[C@@H]32)nc1` >= 30%?
T

Decide: INHIBITION of O=C(c1ccccn1)N1CCN(C(c2ccccc2)C(F)(F)F)CC1 (stereo unspecified) >= 30%?
T

Decide: INHIBITION of `CN(C)C(=O)[C@H]1CO[C@H]2CCN(c3ncc(F)cn3)C[C@H]2C1` >= 30%?
T

Decide: INHIBITION of `Fc1ccc(CN2C[C@@H](OCc3ccccn3)[C@H]3COC[C@H]32)cc1` >= 30%?
T

Decide: INHIBITION of COCCC1(C(=O)O)CCCN(C(=O)c2cc(Cl)ccc2F)C1 (stereo unspecified) >= 30%?
T

Decide: INHIBITION of CCCC1(C(=O)O)CCCN(C(=O)c2cc(Cl)ccc2F)C1 (stereo unspecified) >= 30%?
T

Decide: INHIBITION of `Fc1cnc(N2CCCn3c(nnc3Cn3ccnc3)C2)nc1` >= 30%?
F

Decide: INHIBITION of CCN1C(=O)CCCC12CCCN(C(=O)c1cc(C)oc1C)C2 (stereo unspecified) >= 30%?
F

Decide: INHIBITION of COc1ccc(F)cc1C(=O)N1CCCC(CNS(C)(=O)=O)C1 (stereo unspecified) >= 30%?
F

Decide: INHIBITION of COCCC1(C(=O)O)CCCN(C(=O)c2cc(F)ccc2OC)C1 (stereo unspecified) >= 30%?
T

###

# System: Plasmodium berghei
# assay_protocol: Screen against P. berghei liver stage (PbLuc), transformed with Luciferase, at 10uM
# Format: functional, HepG2
# condition_notes: tested at 10 uM
The whole screen tested about 69,000 compounds, of which about 8,600 (12%) showed an effect of 50% or more. This excerpt belongs to a sample that is enriched for strong results.
reported_endpoint: INHIBITION (%)
Give just the number in %; leave the unit off.

Write down INHIBITION measured for item O=C1NC2(CCc3ccccc31)CCN(C(=O)c1cccnc1)C2 (stereo unspecified)
12.085

Write down INHIBITION measured for item CCC(C)N(Cc1cccnc1)Cc1ccc2c(c1)OCCO2 (stereo unspecified)
52.5

Write down INHIBITION measured for item `CN1CCC(Oc2ccc(NC(=O)c3cccc(Cl)c3)cc2)CC1`
65.1

Write down INHIBITION measured for item c1cncc(CN(Cc2ccc3c(c2)OCCO3)CC2CCCO2)c1 (stereo unspecified)
-2.98

Write down INHIBITION measured for item CCC(C)N(Cc1cccnc1)Cc1cc2c(cc1OC)OCO2 (stereo unspecified)
-19.8

Write down INHIBITION measured for item `Cc1ccc(C(=O)Nc2ccc(OC3CCN(C)CC3)cc2)c(C)c1`
47

Write down INHIBITION measured for item `COCCn1ccc(NCc2cc3cc(F)ccc3o2)n1`
5.58

Write down INHIBITION measured for item CCC(C)N(Cc1cccnc1)Cc1ccccc1Cn1cccn1 (stereo unspecified)
31.3

Write down INHIBITION measured for item `CC(C)Oc1ccc2c(NC(=O)CNC(N)=O)nn(CC(F)(F)F)c2c1`
29.7

Write down INHIBITION measured for item Cc1ccccc1OCCN1CCCC(c2cc(C(N)=O)[nH]n2)C1 (stereo unspecified)
23.5

Write down INHIBITION measured for item `Cc1noc(-c2ccc(N3CCC(C(=O)N4CCCC4)CC3)nc2)n1`
76.7

###

# System: Plasmodium berghei
# assay_protocol: Screen against P. berghei liver stage (PbLuc), transformed with Luciferase, at 10uM
# Format: functional, HepG2
# condition_notes: tested at 10 uM
Among all 69,000 compounds or so, about 8,600 (12%) showed an effect of 50% or more. What follows is part of a selection rich in strong results, with near analogues and random picks from the rest.
Returns the class for an entry based on its INHIBITION. Class ranges: Low = under 30%, Medium = from 30% up to 40%, High = 40% and over

Would you mind sorting COCC(=O)N[C@H](C(=O)NC(C)c1cc(C)ccc1C)C(C)C (stereo not given in full) into the appropriate category?
High

Would you mind sorting COCC(=O)N[C@H](C(=O)NC(C)c1cccc(C)c1C)C(C)C (stereo not given in full) into the appropriate category?
Low

Would you mind sorting `O=C(c1cccc(F)c1)N1CCN2C[C@H](OCc3cccnc3)C[C@H]2C1` into the appropriate category?
Low

Would you mind sorting `CN(Cc1cccc(O)c1)C(=O)Nc1cccnc1N1CCCC1` into the appropriate category?
Medium

Would you mind sorting `O=C(c1cnccn1)N1CCN2C[C@H](OCc3ccccc3F)C[C@H]2C1` into the appropriate category?
High

Would you mind sorting `O=C(c1ccc(F)cc1)N1CCN2C[C@H](OCc3cccnc3)C[C@H]2C1` into the appropriate category?
High

Would you mind sorting `Cc1cc(=O)[nH]cc1C(=O)N1CCN(C)c2ccccc2C1` into the appropriate category?
High

Would you mind sorting `O=C(c1cnccn1)N1CCN2C[C@H](OCc3ccccn3)C[C@H]2C1` into the appropriate category?
Low

Would you mind sorting `O=C(c1cscn1)N1CCN2C[C@H](OCc3cccnc3)C[C@H]2C1` into the appropriate category?
Medium
